- experimental.system: c-Met M1250T (M1268T) (Homo sapiens, UniProt P08581, M1250T)
- Sequence (P08581 956-1390 M1250T limits assumed): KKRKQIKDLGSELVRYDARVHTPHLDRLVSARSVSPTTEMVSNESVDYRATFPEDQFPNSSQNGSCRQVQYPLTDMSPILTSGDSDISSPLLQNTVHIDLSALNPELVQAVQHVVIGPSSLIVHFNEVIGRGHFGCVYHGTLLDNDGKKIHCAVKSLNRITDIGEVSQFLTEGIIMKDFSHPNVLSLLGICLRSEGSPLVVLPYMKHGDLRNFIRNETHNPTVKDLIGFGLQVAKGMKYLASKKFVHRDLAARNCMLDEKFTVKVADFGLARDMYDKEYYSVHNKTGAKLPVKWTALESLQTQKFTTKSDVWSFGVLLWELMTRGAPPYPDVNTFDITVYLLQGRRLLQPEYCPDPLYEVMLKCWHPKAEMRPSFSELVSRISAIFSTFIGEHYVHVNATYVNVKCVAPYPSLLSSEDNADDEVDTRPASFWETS
- procedure.text: Phosphorylation inhibition assay (Z′-LYTE Kinase Assay-Tyr6 Peptide), mutant c-Met
- condition: cell-free kinase assay, 200 μM ATP
- Experimental: Western blot was used to analyze pMet expression. […] Western blot was used to analyze the indicated proteins. Phosphorylation inhibition assay: Z′-LYTE™ Kinase Assay-Tyr6 Peptide kit (Invitrogen) was used to assess the ability of tested compounds to inhibit c-Met phosphorylation. […] The IC50 value for each compound was calculated by nonlinear regression of log concentration versus % c-Met phosphorylation ±S.E.M., implemented in GraphPad Prism version 5.0 (GraphPad Software, CA, USA).
measured.property: IC50 (nM)
Please state the figure in nM; there is no need to write the unit.

Input: Provide only the value of recorded IC50 for `O=S(=O)(O)c1cc(N=C=S)ccc1C=Cc1ccc(N=C=S)cc1S(=O)(=O)O`
Output: 370
